read-out: HMG-CoA synthase (HMGCS2), HMGCS2 (gene 3158); assay: CLD_HMGCS2_24hr: CellzDirect (CLD) Gene Expression Assay for HMG-CoA synthase (HMGCS2) at 24 hours (AID 2283691)
Inconclusive results are not listed. Activity calls are given as the source filed them. How the source made its calls: active means hit-call score of the fitted dose curve at least 0.9, where 1 is the maximum; inconclusive means response in the unintended direction; inactive means score below 0.9.
measured-endpoint: outcome

Example entries begin here.
Task: Param item = COc1nc(C)nc(NC(=O)NS(=O)(=O)c2ccccc2CCC(F)(F)F)n1 ; retrieve measured outcome.
Output: inactive

Task: Param item = CCCCOC(=O)c1ccccc1C(=O)OCCCC ; retrieve measured outcome.
Output: inactive

Task: Param item = CCOC(=O)CC(SP(=S)(OC)OC)C(=O)OCC (stereo not drawn) ; retrieve measured outcome.
Output: inactive

Task: Param item = COC(=O)C(C)Oc1ccc(Oc2ccc(Cl)cc2Cl)cc1 (stereo not drawn) ; retrieve measured outcome.
Output: inactive

More entries:
Task: Param item = CS/C(C)=N/OC(=O)N(C)SN(C)C(=O)O/N=C(\C)SC ; retrieve measured outcome.
Output: inactive

###

assay: CCTE_Shafer_MEA_dev_firing_rate_mean: CCTE's Neural Network Formation Assay for Mean Firing Rate, Shafer Lab (AID 2284031);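 further: AUC of well mean spike rate recorded on DIV 5 7 9 and 12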;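 on AC50: curve fitted for loss of firing so AC50 reflects decreased mean firing rate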
The source made the active and inactive calls. Rule for the calls: active = hit-call score of the fitted dose curve at least 0.9, where 1 is the maximum; inactive = score below 0.9.
measured-endpoint: AC50

Example entries begin here.
Task: Param item = CCOc1cc(Oc2ccc(C(F)(F)F)cc2Cl)ccc1[N+](=O)[O-] ; retrieve measured AC50.
Output: 12.8 µM (active)

Task: Param item = CNC(=O)ON=CC(C)(C)SC ; retrieve measured AC50.
Output: inactive

Task: Param item = Cc1c(F)c(F)c(COC(=O)C2C(/C=C(\Cl)C(F)(F)F)C2(C)C)c(F)c1F (stereo not drawn) ; retrieve measured AC50.
Output: 0.598 µM (active)

Task: Param item = CCOC(=O)CC(SP(=S)(OC)OC)C(=O)OCC (stereo not drawn) ; retrieve measured AC50.
Output: inactive

Task: Param item = N#Cc1nn(-c2c(Cl)cc(C(F)(F)F)cc2Cl)c(N)c1S(=O)C(F)(F)F (stereo not drawn) ; retrieve measured AC50.
Output: inactive

Task: Param item = C=CCC1=C(C)[C@@H](OC(=O)[C@@H]2[C@@H](C=C(C)C)C2(C)C)CC1=O ; retrieve measured AC50.
Output: inactive

Task: Param item = CCCCNC(=O)n1c(NC(=O)OC)nc2ccccc21 ; retrieve measured AC50.
Output: inactive

Task: Param item = COP(N)(=O)SC (stereo not drawn) ; retrieve measured AC50.
Output: inactive

Task: Param item = COP(=S)(OC)Oc1nc(Cl)c(Cl)cc1Cl ; retrieve measured AC50.
Output: inactive

Task: Param item = Cc1ccc(-c2c(Cl)nc(C#N)n2S(=O)(=O)N(C)C)cc1 ; retrieve measured AC50.
Output: 18 µM (active)

More entries:
Task: Param item = COc1ccc(C(c2ccc(OC)cc2)C(Cl)(Cl)Cl)cc1 ; retrieve measured AC50.
Output: inactive

Task: Param item = CCCCOC(=O)c1ccccc1C(=O)OCCCC ; retrieve measured AC50.
Output: inactive

Task: Param item = C=CC1(C)OC(=O)N(c2cc(Cl)cc(Cl)c2)C1=O (stereo not drawn) ; retrieve measured AC50.
Output: inactive

###

read-out: Peroxisomal acyl-coenzyme A oxidase 1 (ACOX1) gene, ACOX1 (gene 51); test: LTEA_HepaRG_ACOX1: Life Technologies and Expression Analysis (LTEA) Assay for Peroxisomal acyl-coenzyme A oxidase 1 (ACOX1) gene using HepaRG (AID 2283467); settings: mRNA level, 48 h; actives raise or lower the signal
Active and inactive are the calls of the source. How the source made its calls: active means hit-call score of the fitted dose curve at least 0.9, where 1 is the maximum; inactive means score below 0.9.
Respond only with the outcome that fits, drawn from active, inactive

Please review the entries below; each comes with its answer.
Task: Status in this test for CCCCC(CC)COC(=O)c1ccccc1C(=O)OCC(CC)CCCC (stereo unspecified) ?
Output: inactive

Task: Status in this test for C=CC1(C)OC(=O)N(c2cc(Cl)cc(Cl)c2)C1=O (stereo unspecified) ?
Output: inactive

More entries:
Task: Status in this test for CCCCNC(=O)n1c(NC(=O)OC)nc2ccccc21 ?
Output: inactive

Task: Status in this test for COC(=O)C=C(C)OP(=O)(OC)OC ?
Output: inactive

Task: Status in this test for CCOc1cc(Oc2ccc(C(F)(F)F)cc2Cl)ccc1[N+](=O)[O-] ?
Output: active

Task: Status in this test for O=C(Nc1ccccc1)Nc1ccnc(Cl)c1 ?
Output: active

Origin of values: PubChem BioAssay (EPA / NIEHS)
